Values were extracted from patent US10590128B2.

# SYSTEM_NAME: human dopamine D2 receptor (hD2R) (Homo sapiens, UniProt P14416)
# Sequence (P14416 whole entry): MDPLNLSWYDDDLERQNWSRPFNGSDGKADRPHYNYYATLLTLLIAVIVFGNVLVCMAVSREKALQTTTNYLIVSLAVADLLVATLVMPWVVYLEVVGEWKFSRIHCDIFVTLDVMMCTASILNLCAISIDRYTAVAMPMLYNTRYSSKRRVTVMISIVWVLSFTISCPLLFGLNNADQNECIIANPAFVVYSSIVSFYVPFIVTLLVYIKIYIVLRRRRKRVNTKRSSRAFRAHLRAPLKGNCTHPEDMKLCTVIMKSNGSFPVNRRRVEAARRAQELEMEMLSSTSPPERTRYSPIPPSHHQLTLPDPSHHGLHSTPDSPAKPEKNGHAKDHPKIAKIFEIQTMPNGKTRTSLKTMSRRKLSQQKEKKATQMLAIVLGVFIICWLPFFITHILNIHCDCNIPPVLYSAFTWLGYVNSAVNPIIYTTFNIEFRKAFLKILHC
# PROTOCOL_SUMMARY: Human D2 receptor binding assay ([^3H]-Spiperone)
# ASSAY_SETUP: CHO cells expressing hD2R, geometric mean of 2-5 determinations unless marked b (single determination)
VALUE_TYPE: Ki (nM)

A selection of reference data follows.
COc1nc2c(cc1NS(=O)(=O)c1ccc(C3CC(F)CCO3)cc1)CCN(C)CC2 (single isomer, unassigned) [Example 106]: 320
COc1nc2c(cc1NS(=O)(=O)c1ccc(C(C)C)cc1)CCN(CCCF)CC2: 162
COc1nc2c(cc1NS(=O)(=O)c1cnc(OC3CCC3)nc1)CCN(C)CC2: 379
COc1nc2c(cc1NS(=O)(=O)c1ccc(C3(C(F)(F)F)CC3)cc1)CCN(C)CC2: 29.1
COc1nc2c(cc1NS(=O)(=O)c1ccc([C@]3(F)C[C@H](OC)C3)cc1)CCN(C)CC2: 99
COc1nc2c(cc1NS(=O)(=O)c1ccc(C(F)(F)C3CCCC3)nc1)CCN(C)CC2: 176
COc1nc2c(cc1NS(=O)(=O)c1ccc(OC3CCCC3)cc1)CCN(C)CC2: 3.21
CCN1CCc2cc(NS(=O)(=O)c3ccc4c(c3)CCCO4)c(OC(C)C)nc2CC1: 1460

A: CCOc1ccc(S(=O)(=O)Nc2cc3c(nc2OC)CCN(CCOC)CC3)cc1
B: CCN1CCc2cc(NS(=O)(=O)c3ccc(C4(C)CCOCC4)cc3)c(OC)nc2CC1
Query: Please compare: A and B . Report which one has the smaller Ki value. Give the label of your selection.
Result: B

###

# SYSTEM_NAME: human dopamine D3 receptor (hD3R) (Homo sapiens)
# Sequence (P35462 whole entry): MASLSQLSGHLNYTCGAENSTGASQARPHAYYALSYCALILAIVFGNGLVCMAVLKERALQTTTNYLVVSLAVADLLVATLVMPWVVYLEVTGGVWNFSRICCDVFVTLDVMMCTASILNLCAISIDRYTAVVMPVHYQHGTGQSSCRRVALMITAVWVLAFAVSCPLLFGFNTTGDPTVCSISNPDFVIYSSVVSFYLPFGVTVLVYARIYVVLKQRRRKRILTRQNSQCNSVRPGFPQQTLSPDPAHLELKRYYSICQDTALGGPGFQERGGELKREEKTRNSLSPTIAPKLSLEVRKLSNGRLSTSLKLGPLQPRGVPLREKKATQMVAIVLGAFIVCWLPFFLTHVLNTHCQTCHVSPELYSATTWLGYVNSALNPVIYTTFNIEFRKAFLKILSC
# PROTOCOL_SUMMARY: Human D3 receptor binding assay ([^3H]-7-OH-DPAT)
# ASSAY_SETUP: CHO cells expressing hD3R, geometric mean of 2-5 determinations unless marked b (single determination), read-out: hD3 in CHO cells Ki
VALUE_TYPE: Ki (nM)

A selection of reference data follows.
COc1nc2c(cc1NS(=O)(=O)c1ccc(Cl)cc1)CCN(C)CC2: 3.26
COc1nc2c(cc1NS(=O)(=O)c1ccc(C3(F)CCCCC3)nc1)CCN(C)CC2: 2.76

A: CCN1CCc2nc(OC)c(NS(=O)(=O)c3ccc(C)cc3)cc2C(C)C1 (stereo not shown)
B: CCO[C@H]1C[C@@](F)(c2ccc(S(=O)(=O)Nc3cc4c(nc3OC)CCN(CC)CC4)cc2)C1
Query: Would you let me know which has the greater Ki value, A or B ? Give the label of your selection.
Result: A
(A: 10.8 nM, B: 7.25 nM)

###

# SYSTEM_NAME: human dopamine D2 receptor (hD2R) (Homo sapiens)
# PROTOCOL_SUMMARY: Human D2 receptor binding assay ([^3H]-Spiperone)
# ASSAY_SETUP: CHO cells expressing hD2R, geometric mean of 2-5 determinations unless marked b (single determination)
pKi: −log10 of the molar value.
VALUE_TYPE: pKi

A selection of reference data follows.
CCN1CCc2cc(NS(=O)(=O)c3ccc(OC(F)F)cc3)c(OC)nc2CC1: 5.64
COc1nc2c(cc1NS(=O)(=O)c1ccc(C3(F)CCC(OC)CC3)cc1)CCN(C)CC2 (single isomer, unassigned) [Example 39]: 6.25
CCN1CCc2cc(NS(=O)(=O)c3ccc(OC4CCCC4)nc3)c(OC)nc2CC1: 7.12
CCN1CCc2cc(NS(=O)(=O)c3ccc4c(c3)CCCO4)c(OC)nc2CC1: 6.12

1: CCN1CCc2nc(OC)c(NS(=O)(=O)c3ccc(C)cc3)cc2C(C)C1 (stereo not drawn)
2: COc1nc2c(cc1NS(=O)(=O)c1ccc(C3CCOC3)cc1)CCN(C)CC2 (stereo not drawn)
Query: Would you let me know which has the greater pKi value, 1 or 2 ? Give the label of your selection.
Result: 2
(2: 6.59, 1: 6.03)
